Provenance of the data: patent US20210395394A1

OD value at 450 nm (refer to 630 nm) listing for selected binders.
molecular target: Pan-species-specific antigen Plasmodium Lactate DeHydrogenase (Pan-PLDH) protein; assay: indirect ELISA, recombinant MA protein coated 1 ug/ml, antibody 40 ng/ml
Entry rule: numbers only, all in OD.

Example entries begin here.
>  <binder>
Mutation 3 (antibody, mouse IgG2b, kappa, V domains shown) VH: QVQLQQPGAELVRPGASVKLSCKASGSSFTNYWMNWVKQRPGQGLEWIGMINPSESETRINQKFKDKATLTVDKSSSTAYMQLSSLTAEDSAVYYCAKSGDFYTSYFDYWGQGTTLTVSS VL: DIQLTQSPASLSASVGETVTITCRGSGNLHNYIAWYQQKQGKSPQLLVYNARTIADGVPSRFSGSGSGTQYSLKINSLQPEDFGSYYCQSFWSTYTFGGGTKLEIKR

>  <OD value at 450 nm (refer to 630 nm) [OD]>
2.01

$$$$
>  <binder>
Mutation 1 (antibody, mouse IgG2b, kappa, V domains shown) VH: QVQLQQPGAELVRPGASVKLSCKASGSSFTNYWMNWVKQRPGQGLEWIGMIHPSESETRINQKFKDKATLTVDKSSSTAYMQLSSLTAEDSAVYYCAKSGDFYTSYFDYWGQGTTLTVSS VL: DIQLTQSPASLSASVGETVTITCRGSGNLHNYLAWYQQKQGKSPQLLVYNARTIADGVPSRFSGSGSGTQYSLKINSLQPEDFGSYYCQSFWSTYTFGGGTKLEIKR

>  <OD value at 450 nm (refer to 630 nm) [OD]>
2.02

$$$$
>  <binder>
Mutation 2 (antibody, mouse IgG2b, kappa, V domains shown) VH: QVQLQQPGAELVRPGASVKLSCKASGSSFTNYFMNWVKQRPGQGLEWIGMIHPSESETRINQKFKDKATLTVDKSSSTAYMQLSSLTAEDSAVYYCAKSGDFYTSYFDYWGQGTTLTVSS VL: DIQLTQSPASLSASVGETVTITCRGSGNLHNYLAWYQQKQGKSPQLLVYNARTIADGVPSRFSGSGSGTQYSLKINSLQPEDFGSYYCQSFWSSYTFGGGTKLEIKR

>  <OD value at 450 nm (refer to 630 nm) [OD]>
1.98

$$$$
>  <binder>
anti-Pan-PLDH 9G7 monoclonal antibody (antibody, mouse IgG2b, kappa, V domains shown) VH: QVQLQQPGAELVRPGASVKLSCKASGSSFTNYFMNWVKQRPGQGLEWIGMINPSESETRINQKFKDKATLTVDKSSSTAYMQLSSLTAEDSAVYYCAKSGDFYTSYWDYWGQGTTLTVSS VL: DIQLTQSPASLSASVGETVTITCRGSGNLHNYIAWYQQKQGKSPQLLVYNARTIADGVPSRFSGSGSGTQYSLKINSLQPEDFGSYYCQSFWSSYTFGGGTKLEIKR

>  <OD value at 450 nm (refer to 630 nm) [OD]>
1.43

$$$$

Reported OD value at 450 nm (refer to 630 nm) of Mutation 4 (antibody, mouse IgG2b, kappa, V domains shown) VH: QVQLQQPGAELVRPGASVKLSCKASGSSFTNYFMNWVKQRPGQGLEWIGMIHPSESETRINQKFKDKATLTVDKSSSTAYMQLSSLTAEDSAVYYCAKSGDFYTSYWDYWGQGTTLTVSS VL: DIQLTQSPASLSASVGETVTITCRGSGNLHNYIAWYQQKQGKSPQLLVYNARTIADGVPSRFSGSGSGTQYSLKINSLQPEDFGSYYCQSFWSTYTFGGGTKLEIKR : 1.92
